Target: PhoSL (Pholiota squarrosa, UniProt A0A384E107)
Sequence (A0A384E107 entry or part of it): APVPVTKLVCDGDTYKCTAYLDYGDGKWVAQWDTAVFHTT
pKd: −log10 of the molar value.
measurement-label: pKd

• C[C@@H]1OC(O)[C@@H](O)[C@H](O)[C@@H]1O (mixture of isomers) [L-fucose] = 2.23

The values you see were collected from paper PMC5958098.
